- system_tested: T1, human LAP-TGFB1 Fc fusion (human)
- T1 construct: also called human LAP-TGFβ1-Fc; human LAP-TGFβ-Fc isoform 1
- procedure_text: SPR pH 6.0, antigen captured on Fab 54BLH
A collection of binders and their measured koff
Unit s⁻¹ implied. Number only.

Completed entries (count: 3):
binder	koff (s⁻¹)
11BLM (antibody, human IgG1, kappa, L234A L235A, V domains shown, IgG1 L234A L235A D265S/kappa; also called 74BLH; 47BMD) VH: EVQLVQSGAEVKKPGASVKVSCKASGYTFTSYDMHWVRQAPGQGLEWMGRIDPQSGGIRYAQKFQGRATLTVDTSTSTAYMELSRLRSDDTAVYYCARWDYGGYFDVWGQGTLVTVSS VL: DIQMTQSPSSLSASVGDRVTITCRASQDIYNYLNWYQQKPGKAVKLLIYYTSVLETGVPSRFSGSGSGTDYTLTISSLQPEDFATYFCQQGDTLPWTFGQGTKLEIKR	0.000892
15BLM (antibody, human IgG1, kappa, L234A L235A, V domains shown, IgG1 L234A L235A D265S/kappa; also called 78BLH; 51BMD) VH: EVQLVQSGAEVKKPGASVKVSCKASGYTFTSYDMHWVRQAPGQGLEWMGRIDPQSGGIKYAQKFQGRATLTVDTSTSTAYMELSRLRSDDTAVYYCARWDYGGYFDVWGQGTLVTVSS VL: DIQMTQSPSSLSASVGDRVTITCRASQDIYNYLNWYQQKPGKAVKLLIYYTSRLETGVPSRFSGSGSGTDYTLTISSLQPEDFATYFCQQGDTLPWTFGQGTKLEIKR	0.00399
06BLM (antibody, human IgG1, L234A L235A, V domains shown, IgG1 L234A L235A D265S/kappa; also called 69BLH; 42BMD) VH: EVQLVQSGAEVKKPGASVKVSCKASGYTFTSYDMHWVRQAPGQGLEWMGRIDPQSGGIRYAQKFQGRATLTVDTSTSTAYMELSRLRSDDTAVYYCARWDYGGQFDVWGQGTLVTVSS VL: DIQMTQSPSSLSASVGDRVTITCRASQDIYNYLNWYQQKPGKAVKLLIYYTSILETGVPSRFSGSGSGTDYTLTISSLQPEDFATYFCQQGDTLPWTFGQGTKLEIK	6.18e-05

Exercise: Please give the measured koff for this binder: 59BLH (Fab, V domains shown, also called 11BLM Fab) VH: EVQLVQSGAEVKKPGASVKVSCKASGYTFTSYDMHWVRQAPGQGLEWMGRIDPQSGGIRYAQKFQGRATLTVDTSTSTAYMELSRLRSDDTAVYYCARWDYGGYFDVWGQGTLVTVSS VL: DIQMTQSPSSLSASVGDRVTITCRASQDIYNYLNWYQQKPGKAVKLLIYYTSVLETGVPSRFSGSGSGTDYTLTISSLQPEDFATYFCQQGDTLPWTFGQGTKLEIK
Key: 0.00126
